Can you tell me log10 of IC50 for the items I'm about to list?
Molecular target: glucan synthase (Candida albicans, UniProt O13428)
Construct: glucan synthase sources (2 μL permeabilized PM503 cells, or 3 μL membrane preparations from either PM503, BWP17, or ND158); endogenous in cells; host or cells: C. albicans strain BWP17, 100,000 g membrane fraction
Sequence (O13428 1-1897): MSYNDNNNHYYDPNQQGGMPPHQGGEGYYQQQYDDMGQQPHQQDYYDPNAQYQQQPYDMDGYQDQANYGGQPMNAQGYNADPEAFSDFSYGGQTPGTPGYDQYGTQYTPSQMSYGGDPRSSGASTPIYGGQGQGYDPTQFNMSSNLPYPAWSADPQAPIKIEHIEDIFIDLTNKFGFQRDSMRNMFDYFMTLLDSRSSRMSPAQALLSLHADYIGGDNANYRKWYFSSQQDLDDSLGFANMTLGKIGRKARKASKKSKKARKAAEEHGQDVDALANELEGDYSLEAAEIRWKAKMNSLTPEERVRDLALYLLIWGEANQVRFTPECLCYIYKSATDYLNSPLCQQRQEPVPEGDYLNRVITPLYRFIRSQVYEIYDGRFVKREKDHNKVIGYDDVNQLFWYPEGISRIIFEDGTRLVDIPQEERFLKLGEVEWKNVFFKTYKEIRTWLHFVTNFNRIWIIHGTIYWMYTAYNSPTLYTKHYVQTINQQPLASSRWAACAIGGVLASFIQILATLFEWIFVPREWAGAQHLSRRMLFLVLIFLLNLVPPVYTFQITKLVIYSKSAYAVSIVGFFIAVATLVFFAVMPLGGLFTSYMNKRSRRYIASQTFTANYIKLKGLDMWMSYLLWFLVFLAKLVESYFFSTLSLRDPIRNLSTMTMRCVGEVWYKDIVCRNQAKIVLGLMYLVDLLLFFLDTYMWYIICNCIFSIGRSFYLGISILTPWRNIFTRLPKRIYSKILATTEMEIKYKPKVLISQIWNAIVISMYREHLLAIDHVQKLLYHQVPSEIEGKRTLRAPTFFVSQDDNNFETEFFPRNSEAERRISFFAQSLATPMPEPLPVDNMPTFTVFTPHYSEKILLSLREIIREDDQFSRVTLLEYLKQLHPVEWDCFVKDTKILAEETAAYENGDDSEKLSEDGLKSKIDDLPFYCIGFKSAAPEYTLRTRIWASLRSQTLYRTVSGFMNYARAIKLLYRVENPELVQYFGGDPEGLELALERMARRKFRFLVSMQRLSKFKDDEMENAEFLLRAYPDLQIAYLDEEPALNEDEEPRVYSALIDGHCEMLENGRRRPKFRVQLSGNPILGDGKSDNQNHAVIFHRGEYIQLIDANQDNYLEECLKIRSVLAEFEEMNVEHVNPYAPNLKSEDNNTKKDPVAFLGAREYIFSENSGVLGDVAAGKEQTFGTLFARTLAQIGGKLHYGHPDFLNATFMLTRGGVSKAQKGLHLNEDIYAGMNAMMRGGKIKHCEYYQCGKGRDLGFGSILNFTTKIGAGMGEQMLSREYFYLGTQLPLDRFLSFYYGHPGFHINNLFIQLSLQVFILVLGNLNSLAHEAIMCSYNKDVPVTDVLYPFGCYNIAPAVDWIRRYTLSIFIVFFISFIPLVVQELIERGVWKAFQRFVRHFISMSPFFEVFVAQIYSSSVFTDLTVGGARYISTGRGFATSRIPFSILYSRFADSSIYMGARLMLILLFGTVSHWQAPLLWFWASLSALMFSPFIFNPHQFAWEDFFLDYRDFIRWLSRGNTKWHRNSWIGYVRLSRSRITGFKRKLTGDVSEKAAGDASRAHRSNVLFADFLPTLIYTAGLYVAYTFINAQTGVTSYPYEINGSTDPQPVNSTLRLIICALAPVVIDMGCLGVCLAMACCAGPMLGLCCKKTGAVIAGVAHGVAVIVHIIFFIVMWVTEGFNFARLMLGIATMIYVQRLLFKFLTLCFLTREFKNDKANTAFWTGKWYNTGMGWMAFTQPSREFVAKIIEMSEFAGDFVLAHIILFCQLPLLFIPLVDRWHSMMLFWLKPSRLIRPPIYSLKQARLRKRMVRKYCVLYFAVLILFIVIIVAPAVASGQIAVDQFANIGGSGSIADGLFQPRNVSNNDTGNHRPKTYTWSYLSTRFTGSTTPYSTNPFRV
Sequence (O42825 1-195 partner limits assumed): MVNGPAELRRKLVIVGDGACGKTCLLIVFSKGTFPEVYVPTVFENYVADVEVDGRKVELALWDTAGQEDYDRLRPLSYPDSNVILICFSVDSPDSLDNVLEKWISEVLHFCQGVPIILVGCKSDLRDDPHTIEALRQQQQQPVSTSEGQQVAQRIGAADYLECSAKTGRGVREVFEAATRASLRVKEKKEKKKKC
Assay: β(1,3) glucan synthase assay, C. albicans BWP17 membrane preparation (IC50)
Format: biochemical
Settings: in vitro fungal enzyme activity assay, read-out: IC50 (μg/mL) Candida albicans (converted)
Annotation: log10 of IC50, nM basis.

In: Output log10 of IC50 of CC1CCC(Oc2c(N3CCN(S(=O)(=O)CCCF)CC3)cnn(-c3cccc(Cl)c3)c2=O)C1 (centres unmarked) [1761Z]
Out: 2.49

In: Output log10 of IC50 of O=c1c(OC2CCCC2)c(N2CCN(S(=O)(=O)NCc3ccccc3)CC2)cnn1-c1cccc(Cl)c1 [808Z]
Out: 1.96

In: Output log10 of IC50 of CCOCCOc1c(N2CCN(C(=O)CC)CC2)cnn(-c2cccc(C)c2)c1=O [227Z]
Out: 5.56

In: Output log10 of IC50 of O=c1c(OC2CCCC2)c(N2CCN(S(=O)(=O)Cc3ccccc3)CC2)cnn1-c1cccc(F)c1 [1402Z]
Out: 2.07

In: Output log10 of IC50 of Cc1nc2ccc(CS(=O)(=O)N3CCN(c4cnn(-c5cc(F)cc(F)c5)c(=O)c4OCC4(C)CC4)CC3)cc2o1 [1898Z]
Out: 2.01

In: Output log10 of IC50 of CC(C)S(=O)(=O)N1CCN(c2cnn(-c3cccc(F)c3)c(=O)c2OCCCCCCC(C)(C)F)CC1 [801Z]
Out: 1.74

In: Output log10 of IC50 of CC(C)(C)COc1c(N2CCN(S(=O)(=O)Cc3cccc(N)c3)CC2)cnn(-c2cccc(Cl)c2)c1=O [1529Z-151]
Out: 2.22

In: Output log10 of IC50 of O=c1c(OCC2CC2)c(N2CCN(S(=O)(=O)Cc3ccccc3)CC2)cnn1-c1cccc(Cl)c1 [1529Z-185]
Out: 1.59
